Listed here: items and their measured kon.
- System name: T1, cynomolgus PD-L1-His (Sino Biological, Cat. 90251-C08H) (cynomolgus, UniProt Q9NZQ7 19-238 (human entry))
- T1 construct: Bought protein; also called Cyno PD-L1; Cynomolgus PD-L1 ECD-His; not shown: His tag
- T1 sequence (Q9NZQ7 other isoform, or with tags, fused parts or gaps C08H C08H limits assumed): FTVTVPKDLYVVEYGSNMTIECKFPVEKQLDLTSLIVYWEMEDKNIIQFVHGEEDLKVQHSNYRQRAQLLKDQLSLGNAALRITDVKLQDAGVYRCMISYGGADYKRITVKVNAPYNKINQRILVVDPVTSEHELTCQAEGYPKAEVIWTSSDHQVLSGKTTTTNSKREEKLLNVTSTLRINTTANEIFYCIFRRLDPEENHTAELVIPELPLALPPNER
- Experimental protocol: BLI (Gator), cynomolgus PD-L1
Just the number in M⁻¹ s⁻¹, nothing appended.

Binder	kon (M⁻¹ s⁻¹)
57F11 (antibody, human IgG1, V domains shown) VH: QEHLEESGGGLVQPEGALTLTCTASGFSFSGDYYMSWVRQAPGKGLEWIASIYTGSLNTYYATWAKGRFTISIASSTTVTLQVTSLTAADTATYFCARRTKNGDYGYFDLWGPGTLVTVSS VL: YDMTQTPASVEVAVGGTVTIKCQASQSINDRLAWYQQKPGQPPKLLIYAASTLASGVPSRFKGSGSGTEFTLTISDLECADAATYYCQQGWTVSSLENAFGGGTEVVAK	373000
73C8 (antibody, human IgG1, V domains shown) VH: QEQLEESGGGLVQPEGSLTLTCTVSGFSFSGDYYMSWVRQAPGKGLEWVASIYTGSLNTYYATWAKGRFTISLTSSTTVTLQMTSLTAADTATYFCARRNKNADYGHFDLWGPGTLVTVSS VL: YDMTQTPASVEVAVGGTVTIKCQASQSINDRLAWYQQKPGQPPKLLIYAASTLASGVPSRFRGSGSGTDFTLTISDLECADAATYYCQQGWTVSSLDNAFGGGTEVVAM	344000

Give the measured kon of 27A2 (antibody, human IgG1, V domains shown) VH: QEQLEESGGGLVQPEGSLTLTCTASGFSFSSNHYMSWVRQAPGKGLEWIGSIGVGSGITDYASWAKGRFTISKASSTTLTLQMTTLTAADTAIYFCARWTSGGGGFGLWGPGTLVTVSS VL: QVLTQTSSPVSAAVGGTVTINCQSSQTIYSDYLFWYQQTPGQPPKLLIYQTSTLASGVPSRFKGSGSGTEFTLTISEIQCDDAATYYCQGYYSGYIWTFGGGTEVVVR .
390000

Same read-out for 62E6 (antibody, human IgG1, V domains shown) VH: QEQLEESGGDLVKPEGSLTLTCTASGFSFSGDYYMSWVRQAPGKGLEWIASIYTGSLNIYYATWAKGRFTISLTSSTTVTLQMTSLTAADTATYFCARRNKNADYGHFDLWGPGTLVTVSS VL: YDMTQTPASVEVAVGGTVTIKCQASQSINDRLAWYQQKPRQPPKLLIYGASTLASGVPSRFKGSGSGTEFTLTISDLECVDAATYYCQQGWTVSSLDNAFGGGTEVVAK ?
313000

Same read-out for 56H3 (antibody, human IgG1, V domains shown) VH: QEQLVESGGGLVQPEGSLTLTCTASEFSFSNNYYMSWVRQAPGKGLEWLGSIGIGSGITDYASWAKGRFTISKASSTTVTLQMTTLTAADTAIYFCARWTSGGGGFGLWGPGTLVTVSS VL: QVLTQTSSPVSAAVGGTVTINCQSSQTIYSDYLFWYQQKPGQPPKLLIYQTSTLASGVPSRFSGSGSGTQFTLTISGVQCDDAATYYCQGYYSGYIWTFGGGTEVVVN ?
349000
